- System: K4 kissing-loop RNA reporter;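 further: bound reporter read as fluorescence of individual clusters on recovered sequencing chips by microscopy, with normalized cluster intensities fitted with a binding model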
- test-name: apparent KD of K4 kissing-loop reporter; higher = weaker reporter binding
- test-conditions: Eterna round: R107; input ligand: none
reported-metric: apparent KD of K4 kissing-loop reporter (µM)

biosequence	unit-spec	value-observed
UCCUGCAAUCUGCCACGAAAGUGGAUUGAUACCAGAGUCGAAAGACUCCCUUGGCAGCGAGUGAUGUUCGACGCAGGUAAAUAAA [MatMod 5 - Jieux - Exclusion - Theophylline A]	µM	0.178
UAUAUAUGAUGUGAUACCAGUGAAAAGCCAGUGAUGUUGGUAGAACUGGUAUAUAAAUGGCACCCUUGGCAGCACAAUCACGUAU [#28 K4 Theophylline B Exclusion]	µM	0.114
CUGGGUUGACGAAAAGUCAACAAAAGAGAAGGAGCGCACGAAAGUGCAGGUAGGUCGCUCAUCCAGUGAUGUUGGAUCAUCCAGA [#SwitchBubble 16 #K4Late]	µM	0.316

Origin of values: the supplement of paper PMC9170038
